# MEASUREMENT TARGET: T1, RMF/HLA complex on antigen-positive cancer cells (SET2, BV173) (human)
# T1 construct: whole, on cells; Naturally presented complex on SET2 (DSMZ ACC 608) and BV173 (DSMZ ACC 20) cells; also called RMF/HLA complex on cells; WT1/HLA-expressing cells
# RUN DESCRIPTION: flow cytometry on SET2 cells, IgG; '++' = EC50 below 10 nM, '+' = EC50 of more than 10 nM
ATTRIBUTE MEASURED: EC50

Give EC50 for each listed item.
1. Fiwi (IgG1) (antibody, V domains shown) VH: EVQLVESGGGLVKPGGSLRLSCAASGFTFSNYWISWVRQAPGKGLEWVGRIKSKTYGGTTDYAEPVKGRFTISRDDSKNTLYLQMNSLKTEDTAVYYCARGRYPELGYFDLWGQGTLVTVSS VL: QSVLTQPPSVSAAPGQKVTISCSGSSSNIGNNYVSWYQQLPGTAPKLLIYDNNKRPSGIPDRFSGSKSGTSATLGITGLQTEDEADYYCGAWDSYLSVSFVFGGGTKLTVLG
2. Cyprus (IgG1) (antibody, V domains shown) VH: QVQLVESGGGLVKPGGSLRLSCAASGFTFSDYYMSWIRQAPGKGLEWVSYISSSGSTIYYADSVKGRFTISRDNAKNSLYLQMNSLRAEDTAVYYCARDGLRYFYGFDYWGQGTLVTVSS VL: QSVLTQPPSVSAAPGQKVTISCSGSSSNIGNNYVSWYQQLPGTAPKLLIYDNNKRPSGIPDRFSGSKSGTSATLGITGLQTEDEADYYCQAWVHYSLVHWVFGGGTKLTVLG

Output line:
1: > 10 nM; 2: > 10 nM
